Where these numbers come from: the supplement of paper PMC4466140

Target: SpMyo1
Assay: SPOT peptide array binding signal intensity (averaged, normalized) (arbitrary units (background-subtracted, floor 0; scale differs between SH3 domains)); higher = stronger binding of the SH3 domain to the peptide
Exercise: for every item that follows, state its recorded SPOT peptide array binding signal intensity.
Enter the number alone.

Q: Please list SPOT peptide array binding signal intensity recorded for the binder `RRSKSLPTTPGIRSG`
Result: 15.2

Q: Please list SPOT peptide array binding signal intensity recorded for the binder `KRRTSLFPWLHKPGI`
Result: 2.5

Q: Please list SPOT peptide array binding signal intensity recorded for the binder `MFLISPPASPPPEFD`
Result: 1430

Q: Please list SPOT peptide array binding signal intensity recorded for the binder `IHTRRPSSTSQYLIR`
Result: 138

Q: Please list SPOT peptide array binding signal intensity recorded for the binder `SSAAPPPPPRRATPE`
Result: 876

Q: Please list SPOT peptide array binding signal intensity recorded for the binder `RLSFFFPLDPAYIRN`
Result: 17.8

Q: Please list SPOT peptide array binding signal intensity recorded for the binder `QHQQRQPKRPKRYSL`
Result: 7.75

Q: Please list SPOT peptide array binding signal intensity recorded for the binder `FTLPPPPPPPGLDEL`
Result: 1110

Q: Please list SPOT peptide array binding signal intensity recorded for the binder `QRKSLRRPTLSKPAV`
Result: 7.75

Q: Please list SPOT peptide array binding signal intensity recorded for the binder `DLPLPDLPPEPPTEL`
Result: 328

Q: Please list SPOT peptide array binding signal intensity recorded for the binder `SRQAIPPPVPNRPGG`
Result: 120

Q: Please list SPOT peptide array binding signal intensity recorded for the binder `RSLRKRPTSPSISGS`
Result: 9

Q: Please list SPOT peptide array binding signal intensity recorded for the binder `KTRLRPAFIQQLWSS`
Result: 3

Q: Please list SPOT peptide array binding signal intensity recorded for the binder `RRLRDKYKLPIVDAD`
Result: 1.25

Q: Please list SPOT peptide array binding signal intensity recorded for the binder `SSSSSPPPLPTRRDH`
Result: 308
